ASSAY TARGET: CFTR in F508del/F508del primary CF hBE cells (Homo sapiens, UniProt P13569, DEL508-508)
Construct: Primary cystic fibrosis human bronchial epithelial (CF hBE) cells were expanded and cultured; endogenous in cells
Sequence (P13569 with tags, fused parts or gaps DEL508-508): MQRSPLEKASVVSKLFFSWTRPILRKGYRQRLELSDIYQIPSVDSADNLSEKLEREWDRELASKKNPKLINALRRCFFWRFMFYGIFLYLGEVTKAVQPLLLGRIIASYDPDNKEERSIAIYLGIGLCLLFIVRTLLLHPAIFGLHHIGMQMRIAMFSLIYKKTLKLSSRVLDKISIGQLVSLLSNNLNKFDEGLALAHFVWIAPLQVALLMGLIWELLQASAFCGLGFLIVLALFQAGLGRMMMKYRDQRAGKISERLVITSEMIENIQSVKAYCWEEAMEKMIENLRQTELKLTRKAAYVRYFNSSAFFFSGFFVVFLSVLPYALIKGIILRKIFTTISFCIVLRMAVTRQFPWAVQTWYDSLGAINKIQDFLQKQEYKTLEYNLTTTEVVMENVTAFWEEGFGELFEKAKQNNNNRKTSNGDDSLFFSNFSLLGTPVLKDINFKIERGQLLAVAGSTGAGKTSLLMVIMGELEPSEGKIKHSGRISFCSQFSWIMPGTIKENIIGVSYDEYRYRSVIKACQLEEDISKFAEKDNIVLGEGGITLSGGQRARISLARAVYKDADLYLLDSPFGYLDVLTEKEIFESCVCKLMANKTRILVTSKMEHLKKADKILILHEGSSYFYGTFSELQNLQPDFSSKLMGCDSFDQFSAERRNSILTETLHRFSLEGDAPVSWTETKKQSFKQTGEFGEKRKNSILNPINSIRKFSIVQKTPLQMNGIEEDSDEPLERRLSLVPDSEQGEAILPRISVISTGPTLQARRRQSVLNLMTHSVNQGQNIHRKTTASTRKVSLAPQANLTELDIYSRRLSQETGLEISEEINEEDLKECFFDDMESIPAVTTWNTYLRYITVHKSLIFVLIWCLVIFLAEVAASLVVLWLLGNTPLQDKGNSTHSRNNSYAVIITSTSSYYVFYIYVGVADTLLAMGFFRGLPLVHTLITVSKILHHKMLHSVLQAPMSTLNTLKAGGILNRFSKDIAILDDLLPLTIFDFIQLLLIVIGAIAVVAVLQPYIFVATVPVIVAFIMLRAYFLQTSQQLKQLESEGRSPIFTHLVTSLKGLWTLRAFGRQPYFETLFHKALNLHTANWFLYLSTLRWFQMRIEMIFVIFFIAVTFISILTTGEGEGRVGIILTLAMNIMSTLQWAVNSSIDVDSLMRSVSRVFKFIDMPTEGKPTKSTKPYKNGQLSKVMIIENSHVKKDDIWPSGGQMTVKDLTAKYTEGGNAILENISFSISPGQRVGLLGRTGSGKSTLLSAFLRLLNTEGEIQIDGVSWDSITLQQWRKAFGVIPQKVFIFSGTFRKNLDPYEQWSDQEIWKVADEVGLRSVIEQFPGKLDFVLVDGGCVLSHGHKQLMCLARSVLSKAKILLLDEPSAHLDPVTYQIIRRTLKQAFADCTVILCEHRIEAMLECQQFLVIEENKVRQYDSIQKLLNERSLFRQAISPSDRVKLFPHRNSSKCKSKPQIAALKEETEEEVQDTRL
MEASUREMENT DESCRIPTION: Ussing chamber electrophysiology assay of CFTR potentiation in F508del/F508del CF bronchial epithelial cells (27° C.)
Excerpt: • SHELXTL, Version 5.1, Bruker AXS, 1997. • PLATON, A. L. Spek, J. Appl. Cryst. 2003, 36, 7-13. • MERCURY, C. F. Macrae, P. R. Edington, P. McCabe, E. Pidcock, G. P. Shields, R. Taylor, M. Towler and J. van de Streek, J. Appl. Cryst. 39, 453-457, 2006. • OLEX2, Dolomanov, O. V.; Bourhis, L. J.; Gildea, R. J.; Howard, J. A. K.; Puschmann, H., (2009). J. Appl. Cryst., 42, 339-341. • R. W. W. Hooft et al. J. Appl. Cryst. (2008). 41. 96-103. • H. D. Flack, Acta Cryst. 1983, A39, 867-881. […]
Entries and their EC50

>  <COMPOUND>
Nc1ncnc2c1c(C1CC1)cn2Cc1cn(-c2ccccc2F)nn1

>  <MEASUREMENT UNITS>
µM

>  <EC50>
0.342

$$$$
>  <COMPOUND>
CCC(c1cn(-c2ccc(F)cc2F)nn1)n1cc(-c2cnc(C(F)F)nc2)c2c(N)ncnc21 (single isomer, unassigned; enantiomer 1) [Example 167]

>  <MEASUREMENT UNITS>
µM

>  <EC50>
0.0505

$$$$
>  <COMPOUND>
CCC(c1cn(-c2ccccc2F)nn1)n1cc(-c2cncnc2OC)c2c(N)ncnc21 (centres unmarked) [Example 244]

>  <MEASUREMENT UNITS>
µM

>  <EC50>
0.0616

$$$$
>  <COMPOUND>
CC(c1cn(-c2ccccc2F)nn1)n1cc(-c2ccc(Cl)c(F)c2)c2c(N)ncnc21 (centres unmarked)

>  <MEASUREMENT UNITS>
µM

>  <EC50>
0.028

$$$$
>  <COMPOUND>
CC(c1cn(-c2ncccc2F)nn1)n1cc(-c2ccc(Cl)cc2)c2c(N)ncnc21 (centres unmarked)

>  <MEASUREMENT UNITS>
µM

>  <EC50>
0.254

$$$$

###

Entries and their pEC50
ASSAY TARGET: recombinant F508del V470 CFTR in Fischer rat thyroid (FRT) cells (Homo sapiens, UniProt P13569, DEL508-508)
Sequence (P13569 with tags, fused parts or gaps DEL508-508): as above
MEASUREMENT DESCRIPTION: FRT ion flux assay of F508del CFTR potentiation
EXPERIMENTAL CONTEXT: FRT cells expressing F508del V470 CFTR, forskolin 20 uM, 27° C. pre-incubation
pEC50: −log10 of the molar value.
PROPERTY: pEC50

>  <MOLECULE>
COc1ncc(-c2cn(C(C)c3cc(-c4ccccc4F)no3)c3ncnc(N)c23)cn1 (single isomer, unassigned; (+)) [Example 184]

>  <PROPERTY>
pEC50

>  <OBSERVED RESULT>
7.30

$$$$
>  <MOLECULE>
COc1ncccc1-c1cn(Cc2cnn(-c3c(F)cccc3F)c2)c2ncnc(N)c12

>  <PROPERTY>
pEC50

>  <OBSERVED RESULT>
7.09

$$$$
>  <MOLECULE>
CCC(c1cn(-c2cc(F)ccc2F)nn1)n1cc(-c2cc(F)cnc2OC)c2c(N)ncnc21 (single isomer, unassigned; enantiomer 2) [Example 172]

>  <PROPERTY>
pEC50

>  <OBSERVED RESULT>
6.69

$$$$
>  <MOLECULE>
CCC(c1cn(-c2cccc(F)c2F)nn1)n1cc(-c2cc(F)cnc2OC)c2c(N)ncnc21 (single isomer, unassigned; enantiomer 1) [Example 169]

>  <PROPERTY>
pEC50

>  <OBSERVED RESULT>
8.10

$$$$
>  <MOLECULE>
COc1ccc(-c2cn(Cc3cn(-c4ccccc4F)nn3)c3ncnc(N)c23)cc1

>  <PROPERTY>
pEC50

>  <OBSERVED RESULT>
7.13

$$$$
>  <MOLECULE>
CCC(c1cn(-c2ccccc2F)nn1)n1cc(-c2ccc(Cl)cc2)c2c(N)ncnc21 (centres unmarked) [Example 211]

>  <PROPERTY>
pEC50

>  <OBSERVED RESULT>
6.96

$$$$
>  <MOLECULE>
CNc1ncnc2c1c(-c1ccc(Cl)cc1)cn2C(C)c1cn(-c2ccccc2F)nn1 (centres unmarked)

>  <PROPERTY>
pEC50

>  <OBSERVED RESULT>
5.52

$$$$
>  <MOLECULE>
CCC(c1cn(-c2ccccc2F)nn1)n1cc(-c2cncnc2OC)c2c(N)ncnc21 (single isomer, unassigned; enantiomer 2) [Example 134]

>  <PROPERTY>
pEC50

>  <OBSERVED RESULT>
7.87

$$$$

###

ASSAY TARGET: CFTR in F508del/F508del primary CF hBE cells (Homo sapiens, UniProt P13569, DEL508-508)
Construct: Primary cystic fibrosis human bronchial epithelial (CF hBE) cells were expanded and cultured; endogenous in cells
MEASUREMENT DESCRIPTION: Ussing chamber electrophysiology assay of CFTR potentiation in F508del/F508del CF bronchial epithelial cells (27° C.)
PROPERTY: EC50 (nM)

>  <COMPOUND>
CC(c1cc(-c2ccccc2F)no1)n1cc(-c2ccc(-c3ncns3)cc2)c2c(N)ncnc21 (centres unmarked)

>  <ASSAY TARGET>
CFTR in F508del/F508del primary CF hBE cells (Homo sapiens, UniProt P13569, DEL508-508)

>  <OBSERVED RESULT>
122

$$$$
>  <COMPOUND>
CCC(c1c[nH]c(-c2ccc(F)cc2F)n1)n1cc(-c2cnc(C(F)(F)F)nc2)c2c(N)ncnc21 (single isomer, unassigned; enantiomer 1)

>  <ASSAY TARGET>
CFTR in F508del/F508del primary CF hBE cells (Homo sapiens, UniProt P13569, DEL508-508)

>  <OBSERVED RESULT>
18.9

$$$$
>  <COMPOUND>
COc1ncncc1-c1cn(Cc2cn(-c3ccccc3F)nn2)c2nc(C)nc(N)c12

>  <ASSAY TARGET>
CFTR in F508del/F508del primary CF hBE cells (Homo sapiens, UniProt P13569, DEL508-508)

>  <OBSERVED RESULT>
2530

$$$$
>  <COMPOUND>
Nc1ncnc2c1c(-c1ccc(Cl)cc1)cn2Cc1cnn(-c2ccccc2F)c1

>  <ASSAY TARGET>
CFTR in F508del/F508del primary CF hBE cells (Homo sapiens, UniProt P13569, DEL508-508)

>  <OBSERVED RESULT>
60.2

$$$$
>  <COMPOUND>
COc1nc(C)ccc1-c1cn(Cc2cn(-c3ccccc3F)nn2)c2ncnc(N)c12

>  <ASSAY TARGET>
CFTR in F508del/F508del primary CF hBE cells (Homo sapiens, UniProt P13569, DEL508-508)

>  <OBSERVED RESULT>
12.2

$$$$
>  <COMPOUND>
CC(c1cn(CC2CCC2)nn1)n1cc(-c2ccc(Cl)cc2)c2c(N)ncnc21 (centres unmarked)

>  <ASSAY TARGET>
CFTR in F508del/F508del primary CF hBE cells (Homo sapiens, UniProt P13569, DEL508-508)

>  <OBSERVED RESULT>
64.7

$$$$
>  <COMPOUND>
CCC(c1cn(-c2ccccc2F)nn1)n1cc(-c2cncnc2OC)c2c(N)nc(C)nc21 (centres unmarked) [Example 302]

>  <ASSAY TARGET>
CFTR in F508del/F508del primary CF hBE cells (Homo sapiens, UniProt P13569, DEL508-508)

>  <OBSERVED RESULT>
297

$$$$
>  <COMPOUND>
CC(c1cnn(-c2ccccc2F)c1)n1c(C#N)c(-c2cnc(C(F)(F)F)nc2)c2c(N)ncnc21 (single isomer, unassigned) [Example 6]

>  <ASSAY TARGET>
CFTR in F508del/F508del primary CF hBE cells (Homo sapiens, UniProt P13569, DEL508-508)

>  <OBSERVED RESULT>
1.19

$$$$
>  <COMPOUND>
CCC(c1cn(-c2ccccc2F)nn1)n1cc(-c2ccc(OC(F)F)nc2)c2c(N)ncnc21 (single isomer, unassigned; enantiomer 2) [Example 142]

>  <ASSAY TARGET>
CFTR in F508del/F508del primary CF hBE cells (Homo sapiens, UniProt P13569, DEL508-508)

>  <OBSERVED RESULT>
4.58

$$$$
>  <COMPOUND>
Cc1nc(N)c2c(-c3ccc(Cl)cc3)cn(C(C)c3cn(-c4ccccc4F)nn3)c2n1 (centres unmarked)

>  <ASSAY TARGET>
CFTR in F508del/F508del primary CF hBE cells (Homo sapiens, UniProt P13569, DEL508-508)

>  <OBSERVED RESULT>
295

$$$$
>  <COMPOUND>
Nc1ncnc2c1c(-c1ccc(Cl)cc1)cn2Cc1ncc(-c2ccccc2F)[nH]1

>  <ASSAY TARGET>
CFTR in F508del/F508del primary CF hBE cells (Homo sapiens, UniProt P13569, DEL508-508)

>  <OBSERVED RESULT>
3500

$$$$
